# System: Nucleic Acid
# measurement_notes: The compound was tested for DNA (from Escherichia coli plasmid pNZ116 ) binding constant to poly[d(G-C)] determined by ethidium bromide displacement
# Assay type: nucleic-acid assay
The reader will find reported Log K values listed item by item below.
Give your answer as a number; write no unit.

Worked examples follow.
Task: # Log K lookup, item `CN(C)CCNC(=O)C1=Nc2cccc3cncc(c23)N1`
Output: 5.88

Task: Now the same for `CN(C)CCNC(=O)C1=Nc2cccc3cccc(c23)N1`
Output: 6.51

Task: Now the same for `CN(C)CCNC1=Nc2cccc3cccc(c23)N1`
Output: 5.9

Task: Now the same for `CN(C)CCSC1=Nc2cccc3cccc(c23)N1`
Output: 6.1

***
Task: # Log K lookup, item `CN(C)CCNC(=O)CC1=Nc2cccc3cccc(c23)N1`
Output: 5.88

Task: Now the same for `CN(C)CCN1C(=O)c2cccc3cccc(c23)C1=O`
Output: 5.87

Task: Now the same for `CN(C)CCN1C=Nc2cccc3cccc1c23`
Output: 5.31

====

# Tested on: P388
# measurement_notes: Optimal dose administered intraperitoneally as a solution in 0.1 mL of 30% v/v ethanol-water on days 1,5 and 9 after intraperitoneal inoculation of 10 e6 P388 leukemia cells
# Assay type: functional, Mus musculus
The reader will find reported OD values listed item by item below.
Report as a plain number; the unit mg/kg/day is understood.

Worked examples follow.
Task: # OD lookup, item `CN(C)CCNC1=Nc2cccc3cccc(c23)N1`
Output: 65

Task: Now the same for `CN(C)CCSC1=Nc2cccc3cccc(c23)N1`
Output: 150

Task: Now the same for `CN(C)CCNC(=O)CC1=Nc2cccc3cccc(c23)N1`
Output: 65

Task: Now the same for `CN(C)CCN1C=Nc2cccc3cccc1c23`
Output: 150

Task: Now the same for `CN(C)CCCN1C=Nc2cccc3cccc1c23`
Output: 150

***
Task: # OD lookup, item `CN(C)CCNC(=O)C1=Nc2cccc3cccc(c23)N1`
Output: 150

Task: Now the same for `CN(C)CCNC(=O)C1=Nc2cccc3cncc(c23)N1`
Output: 65

====

The reader will find reported pKa values listed item by item below.
# measurement_notes: The pKa value spectrophotometrically in water at 25 degree Centigrade
# Type: physicochemical
Give your answer as a number; write no unit.

Worked examples follow.
Task: # pKa lookup, item `CN(C)CCSC1=Nc2cccc3cccc(c23)N1`
Output: 2.66

Task: Now the same for `CN(C)CCCN1C=Nc2cccc3cccc1c23`
Output: 5.1

Task: Now the same for `CN(C)CCCCN1C=Nc2cccc3cccc1c23`
Output: 5.3

Task: Now the same for `CN(C)CCNC(=O)C1=Nc2cccc3cccc(c23)N1`
Output: 1.74

***
Task: # pKa lookup, item `CN(C)CCN1C=Nc2cccc3cccc1c23`
Output: 4.64

====

The reader will find reported Log K values listed item by item below.
# System: Nucleic Acid
# measurement_notes: The compound was tested for DNA (from Escherichia coli plasmid pNZ116 ) binding constant to poly[d(A-T)] determined by ethidium bromide displacement
# Assay type: nucleic-acid assay
Give your answer as a number; write no unit.

Task: # Log K lookup, item `CN(C)CCNC(=O)CC1=Nc2cccc3cccc(c23)N1`
Output: 5.74

Task: Now the same for `CN(C)CCSC1=Nc2cccc3cccc(c23)N1`
Output: 5.78

Task: Now the same for `CN(C)CCNC(=O)C1=Nc2cccc3cncc(c23)N1`
Output: 5.71

Task: Now the same for `CN(C)CCNC1=Nc2cccc3cccc(c23)N1`
Output: 5.77

Task: Now the same for `CN(C)CCNC(=O)C1=Nc2cccc3cccc(c23)N1`
Output: 6.51

***
Task: # Log K lookup, item `CN(C)CCN1C=Nc2cccc3cccc1c23`
Output: 5.17

Task: Now the same for `CN(C)CCN1C(=O)c2cccc3cccc(c23)C1=O`
Output: 5.46
